# target_or_test_system: Tyrosine-protein kinase Srms (Homo sapiens) (UniProt Q9H3Y6);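 also: reported value is a mean of the inhibition readings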
# Sequence (Q9H3Y6 whole entry): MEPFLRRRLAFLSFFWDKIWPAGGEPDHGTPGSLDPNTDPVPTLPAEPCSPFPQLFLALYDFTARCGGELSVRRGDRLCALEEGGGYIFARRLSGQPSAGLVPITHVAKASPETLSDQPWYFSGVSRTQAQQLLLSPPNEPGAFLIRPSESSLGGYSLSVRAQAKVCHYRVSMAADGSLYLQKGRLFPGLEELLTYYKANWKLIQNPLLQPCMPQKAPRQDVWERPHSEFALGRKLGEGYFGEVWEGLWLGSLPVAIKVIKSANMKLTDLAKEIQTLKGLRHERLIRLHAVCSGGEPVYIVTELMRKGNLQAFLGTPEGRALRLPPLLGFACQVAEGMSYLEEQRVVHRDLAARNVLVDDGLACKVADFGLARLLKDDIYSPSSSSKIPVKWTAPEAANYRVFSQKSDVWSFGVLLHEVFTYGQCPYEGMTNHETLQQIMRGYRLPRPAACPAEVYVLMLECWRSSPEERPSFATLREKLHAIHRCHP
# assay_setup: at 0.1 µM
Reported inhibition by item:

[
  {
    "smiles_text": "COc1cccc(-n2nc(C)c3c(N/N=C(\\C)c4ccncc4)ncnc32)c1",
    "target_or_test_system": "Tyrosine-protein kinase Srms (Homo sapiens) (UniProt Q9H3Y6)",
    "inhibition, %": 0.84
  },
  {
    "smiles_text": "CN(C)c1cc2c(Nc3ccc4c(cnn4Cc4ccccc4)c3)ncnc2cn1",
    "target_or_test_system": "Tyrosine-protein kinase Srms (Homo sapiens) (UniProt Q9H3Y6)",
    "inhibition, %": -0.2
  },
  {
    "smiles_text": "CN(c1ccc(NC(=O)Nc2ccc(OC(F)(F)F)cc2)cc1)c1ccnc(Nc2cccc(S(N)(=O)=O)c2)n1",
    "target_or_test_system": "Tyrosine-protein kinase Srms (Homo sapiens) (UniProt Q9H3Y6)",
    "inhibition, %": 0.09
  },
  {
    "smiles_text": "CN(C)C(=O)O[C@H]1CN[C@H](C#Cc2cc3ncnc(Nc4ccc(OCc5cccc(F)c5)c(Cl)c4)c3s2)C1",
    "target_or_test_system": "Tyrosine-protein kinase Srms (Homo sapiens) (UniProt Q9H3Y6)",
    "inhibition, %": 0.59
  },
  {
    "smiles_text": "C[C@@H](Oc1cc(-n2cnc3ccc(OC[C@@H](O)CO)cc32)sc1C(N)=O)c1ccccc1Cl",
    "target_or_test_system": "Tyrosine-protein kinase Srms (Homo sapiens) (UniProt Q9H3Y6)",
    "inhibition, %": 0.51
  },
  {
    "smiles_text": "Cc1nc(-c2ccccc2)n2nc(NCCCN3CCOCC3)ncc12",
    "target_or_test_system": "Tyrosine-protein kinase Srms (Homo sapiens) (UniProt Q9H3Y6)",
    "inhibition, %": 2.65
  },
  {
    "smiles_text": "N#Cc1cccc(Nc2nccc(-c3cnn4ncccc34)n2)c1",
    "target_or_test_system": "Tyrosine-protein kinase Srms (Homo sapiens) (UniProt Q9H3Y6)",
    "inhibition, %": 1.1
  },
  {
    "smiles_text": "Nc1nccc(-c2c(-c3ccc(F)cc3)ncn2CCCN2CCOCC2)n1",
    "target_or_test_system": "Tyrosine-protein kinase Srms (Homo sapiens) (UniProt Q9H3Y6)",
    "inhibition, %": -1.41
  },
  {
    "smiles_text": "Oc1cccc(-c2nc(-c3ccccc3)[nH]c2-c2ccncc2)c1",
    "target_or_test_system": "Tyrosine-protein kinase Srms (Homo sapiens) (UniProt Q9H3Y6)",
    "inhibition, %": 3.43
  },
  {
    "smiles_text": "Cc1ccc(NC(=O)CC2CC2)cc1-c1ccc(C(=O)NCC2CC2)cc1",
    "target_or_test_system": "Tyrosine-protein kinase Srms (Homo sapiens) (UniProt Q9H3Y6)",
    "inhibition, %": 0.3
  }
]

----------
# target_or_test_system: Tyrosine-protein kinase JAK1 (Homo sapiens) (UniProt P23458);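 also: each value is a mean inhibition of JAK1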
# Sequence (P23458 whole entry): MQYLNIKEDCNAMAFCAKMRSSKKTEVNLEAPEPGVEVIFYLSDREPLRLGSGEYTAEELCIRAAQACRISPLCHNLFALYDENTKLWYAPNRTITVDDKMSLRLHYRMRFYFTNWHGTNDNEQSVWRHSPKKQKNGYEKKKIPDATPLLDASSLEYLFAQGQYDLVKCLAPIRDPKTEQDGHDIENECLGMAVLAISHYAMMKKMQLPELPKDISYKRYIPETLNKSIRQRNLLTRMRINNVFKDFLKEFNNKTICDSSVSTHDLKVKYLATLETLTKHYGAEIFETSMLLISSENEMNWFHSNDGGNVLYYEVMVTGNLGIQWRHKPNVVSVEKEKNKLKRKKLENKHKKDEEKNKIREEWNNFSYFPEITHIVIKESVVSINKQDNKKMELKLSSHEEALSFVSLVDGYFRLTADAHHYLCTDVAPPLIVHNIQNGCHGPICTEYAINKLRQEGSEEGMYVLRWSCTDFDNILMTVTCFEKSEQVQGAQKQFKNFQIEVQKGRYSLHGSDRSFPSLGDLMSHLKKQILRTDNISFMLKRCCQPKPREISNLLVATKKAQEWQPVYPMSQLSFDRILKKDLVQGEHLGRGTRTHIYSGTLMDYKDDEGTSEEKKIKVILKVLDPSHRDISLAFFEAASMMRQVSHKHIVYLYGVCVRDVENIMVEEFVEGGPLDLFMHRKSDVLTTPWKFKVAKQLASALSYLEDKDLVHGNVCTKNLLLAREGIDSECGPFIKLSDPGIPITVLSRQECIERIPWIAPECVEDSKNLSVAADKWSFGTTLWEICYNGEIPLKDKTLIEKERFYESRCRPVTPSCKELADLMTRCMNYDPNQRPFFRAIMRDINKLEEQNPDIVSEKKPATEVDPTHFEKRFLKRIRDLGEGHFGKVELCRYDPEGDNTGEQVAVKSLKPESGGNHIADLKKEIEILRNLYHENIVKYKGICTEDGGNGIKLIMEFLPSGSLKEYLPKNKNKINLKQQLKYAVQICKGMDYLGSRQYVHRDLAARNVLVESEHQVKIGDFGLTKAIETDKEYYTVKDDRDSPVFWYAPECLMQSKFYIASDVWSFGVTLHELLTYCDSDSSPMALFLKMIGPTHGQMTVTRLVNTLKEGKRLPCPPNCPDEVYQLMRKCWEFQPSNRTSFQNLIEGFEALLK
# assay_setup: at 1 µM
Reported inhibition by item:
outcome_measure: inhibition (%)

[
  {
    "molecule": "Cc1ccc2c(-c3ccnc(Nc4ccc5c(c4)OCCO5)n3)c(-c3ccc(C(F)(F)F)cc3)nn2n1",
    "measure_unit": "%",
    "reported_value": 1.09
  },
  {
    "molecule": "COc1cccc(-n2nc(C)c3c(N/N=C(\\C)c4ccncc4)ncnc32)c1",
    "measure_unit": "%",
    "reported_value": 4.07
  },
  {
    "molecule": "CCS(=O)(=O)c1ccc(OC)c(Nc2ncc(-c3cccc(OC)c3)o2)c1",
    "measure_unit": "%",
    "reported_value": -4.39
  },
  {
    "molecule": "CS(=O)(=O)Nc1cccc(-c2ccc3c(NC(=O)C4CC4)n[nH]c3c2)c1",
    "measure_unit": "%",
    "reported_value": 0.48
  },
  {
    "molecule": "CN(C)C(=O)O[C@H]1CN[C@H](C#Cc2cc3ncnc(Nc4ccc(OCc5cccc(F)c5)c(Cl)c4)c3s2)C1",
    "measure_unit": "%",
    "reported_value": 4.66
  },
  {
    "molecule": "FC(F)(F)c1ccc(-c2nn3ncccc3c2-c2ccnc(Nc3ccc4c(c3)OCCO4)n2)cc1",
    "measure_unit": "%",
    "reported_value": 24.3
  },
  {
    "molecule": "CN(C)CCCn1c(-c2nonc2N)nc2cnccc21",
    "measure_unit": "%",
    "reported_value": 6.17
  },
  {
    "molecule": "CCS(=O)(=O)c1ccc(OC)c(Nc2nccc(N(C)c3ccc4c(C)n[nH]c4c3)n2)c1",
    "measure_unit": "%",
    "reported_value": 5.13
  },
  {
    "molecule": "Nc1nccc(-c2c(-c3ccc(F)cc3)ncn2CCCN2CCOCC2)n1",
    "measure_unit": "%",
    "reported_value": 17.8
  },
  {
    "molecule": "NS(=O)(=O)c1cccc(-c2cc3ccncc3cc2OCc2ccccc2)c1",
    "measure_unit": "%",
    "reported_value": 2.7
  },
  {
    "molecule": "CCn1c(-c2nonc2N)nc2ccc(F)cc21",
    "measure_unit": "%",
    "reported_value": 10.5
  },
  {
    "molecule": "Cc1ccc(Nc2ccnc(Nc3cccc(C(N)=O)c3)n2)cc1O",
    "measure_unit": "%",
    "reported_value": 32.7
  },
  {
    "molecule": "COc1cc2ncnc(Nc3ccc4c(cnn4Cc4ccccc4)c3)c2cc1OC",
    "measure_unit": "%",
    "reported_value": 2.43
  },
  {
    "molecule": "COc1cccc(-n2ncc3c(N/N=C/c4ccc(S(C)(=O)=O)cc4)ncnc32)c1",
    "measure_unit": "%",
    "reported_value": 6.92
  },
  {
    "molecule": "COC(=O)c1ccc2c(c1)C(=Cc1cc(Br)c(O)c(Br)c1)C(=O)N2",
    "measure_unit": "%",
    "reported_value": 12.2
  },
  {
    "molecule": "Nc1ccc(C#Cc2cncnc2Nc2ccc(OCc3cccc(F)c3)c(Cl)c2)cc1",
    "measure_unit": "%",
    "reported_value": 0.58
  },
  {
    "molecule": "CC(C)c1ccc(Nc2nccc(-c3cnn4ncccc34)n2)cc1",
    "measure_unit": "%",
    "reported_value": 8.98
  },
  {
    "molecule": "CN(C)c1cc2c(Nc3ccc4c(cnn4Cc4ccccc4)c3)ncnc2cn1",
    "measure_unit": "%",
    "reported_value": -0.82
  },
  {
    "molecule": "CN1CCN(C(=O)c2ccc(NC(=O)Nc3ccc(N(C)c4ccnc(Nc5ccc(CS(C)(=O)=O)cc5)n4)cc3)cc2)CC1",
    "measure_unit": "%",
    "reported_value": 20.6
  },
  {
    "molecule": "Cc1ccc(O)cc1Nc1ccnc2ccc(S(C)(=O)=O)cc12",
    "measure_unit": "%",
    "reported_value": 11.8
  },
  {
    "molecule": "OCc1ccc(-c2nc(-c3ccccn3)c(-c3ccc4c(c3)OCO4)[nH]2)cc1",
    "measure_unit": "%",
    "reported_value": 3.24
  },
  {
    "molecule": "COc1cc2ncn(-c3cc(OCc4ccccc4S(C)(=O)=O)c(C#N)s3)c2cc1OC",
    "measure_unit": "%",
    "reported_value": 5.39
  },
  {
    "molecule": "COC(=O)c1cncc(/C=C/c2c(C)cc(O)cc2C)c1",
    "measure_unit": "%",
    "reported_value": 4.21
  },
  {
    "molecule": "Cc1cc(O)cc(C)c1/C=C/c1cncc(C(=O)N(C)C)c1",
    "measure_unit": "%",
    "reported_value": 5.42
  },
  {
    "molecule": "COc1cccc(-n2ncc3c(N/N=C/c4ccc(C)cc4)ncnc32)c1",
    "measure_unit": "%",
    "reported_value": 3.83
  },
  {
    "molecule": "CN(c1ccc(NC(=O)Nc2ccc(OC(F)(F)F)cc2)cc1)c1ccnc(Nc2cccc(S(N)(=O)=O)c2)n1",
    "measure_unit": "%",
    "reported_value": 12.8
  },
  {
    "molecule": "O=C1Nc2ccccc2/C1=C/Nc1ccc2[nH]c(=O)[nH]c2c1",
    "measure_unit": "%",
    "reported_value": 20.8
  },
  {
    "molecule": "Cc1ccc2c(-c3ccnc(Nc4cccc(C(F)(F)F)c4)n3)c(-c3ccccc3)nn2n1",
    "measure_unit": "%",
    "reported_value": 4.74
  },
  {
    "molecule": "O=C(Nc1ccc(Oc2ccc3[nH]c(NC(=O)c4ccco4)nc3c2)cc1)Nc1cc(C(F)(F)F)ccc1F",
    "measure_unit": "%",
    "reported_value": 0.27
  },
  {
    "molecule": "CS(=O)(=O)CCNCc1nc(-c2ccc3ncnc(Nc4ccc(OCc5cccc(C(F)(F)F)c5)cc4)c3c2)cs1",
    "measure_unit": "%",
    "reported_value": 3.96
  },
  {
    "molecule": "CCCN1CCCC(c2ccc(Nc3nc(Nc4cc(F)ccc4C(N)=O)c4cc[nH]c4n3)c(OC)c2)C1 (stereo not given)",
    "measure_unit": "%",
    "reported_value": -0.81
  },
  {
    "molecule": "CN(C)C(=O)O[C@@H]1CN[C@@H](C#Cc2cc3ncnc(Nc4ccc(OCc5cccc(F)c5)c(Cl)c4)c3s2)C1",
    "measure_unit": "%",
    "reported_value": 0.05
  },
  {
    "molecule": "CC(C)c1ccc2c(c1)NC(=O)/C2=N/Nc1ccc(S(N)(=O)=O)cc1",
    "measure_unit": "%",
    "reported_value": 0.94
  },
  {
    "molecule": "CCn1c(-c2nonc2N)nc2c(C#CC(C)(C)O)nc(OCCNC)cc21",
    "measure_unit": "%",
    "reported_value": 2.83
  },
  {
    "molecule": "NS(=O)(=O)c1ccc(-c2cc3ccncc3cc2OCc2ccccc2)cc1",
    "measure_unit": "%",
    "reported_value": 10
  },
  {
    "molecule": "N#Cc1cccc(Nc2nccc(-c3cnn4ncccc34)n2)c1",
    "measure_unit": "%",
    "reported_value": 14.9
  },
  {
    "molecule": "[O-][S+]1CCN(Cc2ccc(-c3ccc4ncnc(Nc5ccc(OCc6ccccc6)c(Cl)c5)c4c3)o2)CC1",
    "measure_unit": "%",
    "reported_value": 2.62
  },
  {
    "molecule": "NS(=O)(=O)c1ccc(N/N=C2\\C(=O)Nc3ccc(Cl)cc32)cc1",
    "measure_unit": "%",
    "reported_value": 11.7
  },
  {
    "molecule": "Nc1nccc(C#Cc2cncnc2Nc2ccc(OCc3cccc(F)c3)c(Cl)c2)n1",
    "measure_unit": "%",
    "reported_value": 2.27
  },
  {
    "molecule": "Nc1nccc(-c2c(-c3ccc(F)cc3)nn3cc(C(F)(F)F)ccc23)n1",
    "measure_unit": "%",
    "reported_value": 1.9
  }
]
